Entries and their percent change in 14C-acetate incorporation into sterols at 0.01 µM
# Tested on: human hepatoma cells (HEP-G2)
# protocol: Inhibition of 14C-acetate incorporation in digitonin-precipitatable steroids in HEP-G2 cells
# Type: cell-based
# assay.setup: Homo sapiens, HepG2, 10^-8 mol/l

Recorded percent change in 14C-acetate incorporation into sterols at 0.01 µM, per entry:
| molecule | recorded.measurement |
| --- | --- |
| O=C(c1ccc(Cl)cc1)N1CCC(=Cc2ccc(C3=N[C@@H](Cc4ccccc4)CO3)cc2)CC1 | -15% |
| O=C(c1ccc(Cl)cc1)N1CCC(=Cc2ccc(C3=NCCCO3)cc2)CC1 | -51% |
| O=C(c1ccc(F)cc1)N1CCC(=Cc2ccc(C3=NCCO3)cc2)CC1 | -36% |

--- query ---
Returns the measured percent change in 14C-acetate incorporation into sterols at 0.01 µM for the input molecule. Input: `O=C(c1c(F)c(F)c(F)c(F)c1F)N1CCC(=Cc2ccc(C3=NCCO3)cc2)CC1`
-8%
